# melting point per entry
Please don't drop the unit; write it after the number.

// below: answered molecules
[[record]]
molecule = "CCCC(=O)c1cnn(-c2ccc(NC(=O)c3cn(CC(=O)N4CCN5CCNC(=O)C5C4)c4ccc(Cl)cc34)cc2)c1C.Cl (stereo not drawn)"
observed = "230 °C"

[[record]]
molecule = "CCCC(=O)c1cnn(-c2ccc(NC(=O)c3cn(CC(=O)N4CCN(CCOC(C)=O)CC4)c4ccc(Cl)cc34)cc2)c1C.Cl"
observed = "160 °C"

[[record]]
molecule = "CCCC(=O)c1cnn(-c2ccc(NC(=O)c3cn(CC(=O)N4CCN(C)C(C(=O)NC)C4)c4ccc(Cl)cc34)cc2)c1C (stereo not drawn)"
observed = "274 °C"

[[record]]
molecule = "CCCC(=O)c1cnn(-c2ccc(NC(=O)c3cn(CC(=O)N4CC(C)N(CCOC)C(C)C4)c4ccc(Cl)cc34)cc2)c1C.Cl (stereo not drawn)"
observed = "187 °C"

[[record]]
molecule = "CCCC(=O)c1cnn(-c2ccc(NC(=O)c3cn(CC(=O)N4CCN(CC(C)=O)CC4)c4ccc(Cl)cc34)cc2)c1C.Cl"
observed = "248 °C"


For the molecule CCCC(=O)c1cnn(-c2ccc(NC(=O)c3cn(CC(=O)N4CC(C)N(C)C(C)C4)c4ccc(Cl)cc34)cc2)c1C.Cl (stereo not drawn) , give its measured melting point value.
217 °C

----------
In this section, each of the compounds is paired with its reported Inhibition of platelet aggregation ex vivo (rat blood) in %, Gavage (oral) 10 mg/kg.
System: platelet aggregation
Experimental details: Inhibition of platelet aggregation ex vivo (rat blood)
Type: in vivo
Condition summary: rat, gavage (oral), 10 mg/kg, two hours before taking the sample
Give the number; % is assumed, so skip it.

Some solved entries appear below for comparison.
[[record]]
compound = "CCCC(=O)c1cnn(-c2ccc(NC(=O)c3cn(CC(=O)N4CCN(C)CC4C)c4ccc(Cl)cc34)cc2)c1C.Cl (stereo not drawn)"
unit_abbreviation = "%"
observed = 63.9

[[record]]
compound = "CCCC(=O)c1cnn(-c2ccc(NC(=O)c3cn(CC(=O)N4CCN(C)CC4)c4cc(C)c(C)cc34)cc2)c1C.Cl"
unit_abbreviation = "%"
observed = 36.8


Shifting focus to the compound that follows.
Give recorded Inhibition of platelet aggregation ex vivo (rat blood) in %, Gavage (oral) 10 mg/kg. CCCC(=O)c1cnn(-c2ccc(NC(=O)c3cn(CC(=O)N4CCN(CCOCCOC)CC4)c4ccc(Cl)cc34)cc2)c1C.Cl
53.7

----------
System: platelet aggregation
Experimental details: Inhibition of platelet aggregation ex vivo (rat blood)
Assay type: in vivo
Condition summary: rat, gavage (oral), 10 mg/kg, two hours before taking the sample
Observable: Inhibition of platelet aggregation ex vivo (rat blood) in %, Gavage (oral) 10 mg/kg

Worked cases, answers included:
[[record]]
molecule = "CCCC(=O)c1cnn(-c2ccc(NC(=O)c3cn(CC(=O)N4CCCC4C(F)(F)F)c4ccc(Cl)cc34)cc2)c1C (stereo not shown) [Compound 170]"
observed = "71.5%"

[[record]]
molecule = "CCCC(=O)c1cnn(-c2ccc(NC(=O)c3cn(CC(=O)N4CCN(CCF)CC4)c4ccc(C)cc34)cc2)c1C.Cl [Compound 133]"
observed = "74.2%"

[[record]]
molecule = "CCCC(=O)c1cnn(-c2ccc(NC(=O)c3cn(CC(=O)N4CCN(CCF)CC4)c4ccc(Cl)cc34)cc2)c1C.Cl [Compound 142]"
observed = "76.5%"

[[record]]
molecule = "CCCC(=O)c1cnn(-c2ccc(NC(=O)c3cn(CC(=O)N4CCN(C)CC4)c4ccc(Cl)cc34)cc2)c1C.Cl [Compound 115]"
observed = "50.6%"


# assay system platelet aggregation: give Inhibition of platelet aggregation ex vivo (rat blood) in %, Gavage (oral) 10 mg/kg of CCCC(=O)c1cnn(-c2ccc(NC(=O)c3cn(CC(=O)N4CCN(Cc5ccc(F)cc5)CC4)c4ccc(C)cc34)cc2)c1C.Cl [Compound 147]
74.9%

Name the recorded Inhibition of platelet aggregation ex vivo (rat blood) in %, Gavage (oral) 10 mg/kg of CCCC(=O)c1cnn(-c2ccc(NC(=O)c3cn(CC(=O)N4CCN(C(C)COC)CC4)c4ccc(Cl)cc34)cc2)c1C.Cl (stereo not shown) [Compound 179] , assay system platelet aggregation.
76.1%

----------
Tested on: platelet aggregation
Experimental details: Inhibition of platelet aggregation ex vivo (rat blood)
Format: in vivo
Condition summary: Platelet, 2 h; rat, gavage (oral), 10 mg/kg, two hours before taking the sample; read-out: Inhibition of platelet aggregation ex vivo (rat blood) in %, Gavage (oral) 10 mg/kg
Counter-ions that a name gives are not always drawn.
Observable: inhibition at 10 mg/kg (%)
The reply should contain only the number, in %.

Below: 3 compounds and their reported inhibition at 10 mg/kg.
[[record]]
compound = "CCCC(=O)c1cnn(-c2ccc(NC(=O)c3cn(CC(=O)N4CCN(CC(C)=O)CC4)c4ccc(Cl)cc34)cc2)c1C.Cl [Compound 276, hydrochloride]"
measured_target = "platelet aggregation"
observed = 49.9

[[record]]
compound = "CCCC(=O)c1cnn(-c2ccc(NC(=O)c3cn(CC(=O)N4CCN5CCN(C)C(=O)C5C4)c4ccc(Cl)cc34)cc2)c1C (stereo not shown) [Compound 274, hydrochloride]"
measured_target = "platelet aggregation"
observed = 82.7

[[record]]
compound = "CCCC(=O)c1cnn(-c2ccc(NC(=O)c3cn(CC(=O)N4CCN(CCOC)CC4)c4ccc(Cl)cc34)cc2)c1C [Compound 105, hydrochloride]"
measured_target = "platelet aggregation"
observed = 67.9


Now consider the entry below.
Could you please provide reported inhibition at 10 mg/kg for CCCC(=O)c1cnn(-c2ccc(NC(=O)c3cn(CC(=O)N4CC(C)N(C)C(C)C4)c4ccc(Cl)cc34)cc2)c1C.Cl (stereo not shown) [Compound 262, hydrochloride] ? Thanks!
58.8

----------
Test system: platelet aggregation
Experimental details: Inhibition of platelet aggregation ex vivo (rat blood)
Format: in vivo
Condition summary: rat, gavage (oral), 10 mg/kg, two hours before taking the sample
Inhibition of platelet aggregation ex vivo (rat blood) in %, Gavage (oral) 10 mg/kg values by entry
Provide only the numeric value, understood in %.

Before answering, review these 3 worked examples.
[[record]]
structure_as_smiles = "CCCC(=O)c1cnn(-c2ccc(NC(=O)c3cn(CC(=O)N4CCN(CCOC)CC4)c4ccc(C)cc34)cc2)c1C.Cl"
measured_target = "platelet aggregation"
observed = 61.1

[[record]]
structure_as_smiles = "CCCC(=O)c1cnn(-c2ccc(NC(=O)c3cn(CC(=O)N4CCN(C(C)(C)COC)CC4)c4ccc(Cl)cc34)cc2)c1C.Cl"
measured_target = "platelet aggregation"
observed = 65.1

[[record]]
structure_as_smiles = "CCCC(=O)c1cnn(-c2ccc(NC(=O)c3cn(CC(=O)N4CCN(C)CC4)c4ccc(Cl)cc34)c(C#N)c2)c1C"
measured_target = "platelet aggregation"
observed = 65.1


We next turn to a different compound, shown below.
Find the measured Inhibition of platelet aggregation ex vivo (rat blood) in %, Gavage (oral) 10 mg/kg of CCCC(=O)c1cnn(-c2ccc(NC(=O)c3cn(CC(=O)N4CCN(Cc5cc(C)on5)CC4)c4ccc(Cl)cc34)cc2)c1C.Cl and report it.
72.0
